Cited source: ChEMBL document CHEMBL1158122

assay_method_text: Cytotoxicity against human HCT 116 cells after 48 hrs by SRB assay
Type: functional
condition_details: HCT-116, 48 h
Reported GI50 is given for each of the following molecules.
endpoint: GI50 (µM)

molecule	value_unit	qual	result_number
CCCCOC(=O)[C@H]1O[C@@H](O[C@H]2CC[C@]3(C)[C@H]4CC=C5[C@@H]6CC(C)(C)CC[C@]6(C(=O)O[C@@H]6O[C@H](CO)[C@@H](O)[C@H](O)[C@H]6O)CC[C@@]5(C)[C@]4(C)CC[C@H]3C2(C)C)[C@H](O)[C@@H](O)[C@@H]1O	µM	=	1.12
CCCCOC(=O)[C@H]1O[C@@H](O[C@H]2CC[C@]3(C)[C@H]4CC=C5[C@@H]6CC(C)(C)CC[C@]6(C(=O)O)CC[C@@]5(C)[C@]4(C)CC[C@H]3C2(C)C)[C@H](O[C@@H]2O[C@H](CO)[C@@H](O)[C@H](O)[C@H]2O)[C@@H](O[C@@H]2O[C@H](CO)[C@H](O)[C@H](O)[C@H]2O)[C@@H]1O	µM	=	20.6
CC1(C)CC[C@]2(C(=O)O)CC[C@]3(C)C(=CC[C@@H]4[C@@]5(C)CC[C@H](O[C@@H]6O[C@H](C(=O)O)[C@@H](O)[C@H](O[C@@H]7O[C@H](CO)[C@H](O)[C@H](O)[C@H]7O)[C@H]6O[C@@H]6O[C@H](CO)[C@@H](O)[C@H](O)[C@H]6O)C(C)(C)[C@@H]5CC[C@]43C)[C@@H]2C1 [CALENDULAGYCOSIDE B]	µM	>	100
COC(=O)[C@H]1O[C@@H](O[C@H]2CC[C@]3(C)[C@H]4CC=C5[C@@H]6CC(C)(C)CC[C@]6(C(=O)O)CC[C@@]5(C)[C@]4(C)CC[C@H]3C2(C)C)[C@H](O)[C@@H](O[C@@H]2O[C@H](CO)[C@H](O)[C@H](O)[C@H]2O)[C@@H]1O	µM	=	6.39

###

System: Raji
assay_method_text: Inhibition of TPA-induced EBV-early antigen activation in human Raji cells at 500 molar ratio relative to TPA
Assay type: cell-based
Parameters: scale not given: the % may be the effect or the level left
condition_details: human gammaherpesvirus 4
endpoint: Activity

compound	result
CCCCOC(=O)[C@H]1O[C@@H](O[C@H]2CC[C@]3(C)[C@H]4CC=C5[C@@H]6CC(C)(C)CC[C@]6(C(=O)O[C@@H]6O[C@H](CO)[C@@H](O)[C@H](O)[C@H]6O)CC[C@@]5(C)[C@]4(C)CC[C@H]3C2(C)C)[C@H](O)[C@@H](O[C@@H]2O[C@H](CO)[C@H](O)[C@H](O)[C@H]2O)[C@@H]1O	41.5%
CC1(C)CC[C@]2(C(=O)O)CC[C@]3(C)C(=CC[C@@H]4[C@@]5(C)CC[C@H](O[C@@H]6O[C@H](C(=O)O)[C@@H](O)[C@H](O[C@@H]7O[C@H](CO)[C@H](O)[C@H](O)[C@H]7O)[C@H]6O[C@@H]6O[C@H](CO)[C@@H](O)[C@H](O)[C@H]6O)C(C)(C)[C@@H]5CC[C@]43C)[C@@H]2C1 [CALENDULAGYCOSIDE B]	40.3%

###

Tested on: Raji
assay_method_text: Inhibition of TPA-induced EBV-early antigen activation in human Raji cells at 500 molar ratio relative to TPA
Type: cell-based
Design: scale not given: the % may be the effect or the level left
condition_details: human gammaherpesvirus 4

compound	value_unit	Activity
COc1cc(-c2oc3cc(O)cc(O)c3c(=O)c2O[C@@H]2O[C@H](CO[C@@H]3O[C@@H](C)[C@H](O)[C@@H](O)[C@H]3O)[C@@H](O)[C@H](O)[C@H]2O)ccc1O [NARCISSIN]	%	62.4
CC1(C)CC[C@]2(C(=O)O[C@@H]3O[C@H](CO)[C@@H](O)[C@H](O)[C@H]3O)CC[C@]3(C)C(=CC[C@@H]4[C@@]5(C)CC[C@H](O[C@@H]6O[C@H](C(=O)O)[C@@H](O)[C@H](O[C@@H]7O[C@H](CO)[C@H](O)[C@H](O)[C@H]7O)[C@H]6O[C@@H]6O[C@H](CO)[C@@H](O)[C@H](O)[C@H]6O)C(C)(C)[C@@H]5CC[C@]43C)[C@@H]2C1 [CALENDULAGYCOSIDE A]	%	52.3
COC(=O)[C@H]1O[C@@H](O[C@H]2CC[C@]3(C)[C@H]4CC=C5[C@@H]6CC(C)(C)CC[C@]6(C(=O)O[C@@H]6O[C@H](CO)[C@@H](O)[C@H](O)[C@H]6O)CC[C@@]5(C)[C@]4(C)CC[C@H]3C2(C)C)[C@H](O)[C@@H](O[C@@H]2O[C@H](CO)[C@H](O)[C@H](O)[C@H]2O)[C@@H]1O	%	52.1

###

System: MDA-MB-435
assay_method_text: Cytotoxicity against human MDA-MB-435 cells after 48 hrs by SRB assay
Assay type: functional
condition_details: MDA-MB-435, 48 h
endpoint: GI50 (µM)

compound	endpoint	value_unit	qual	result_number
CC1(C)CC[C@]2(C(=O)O)CC[C@]3(C)C(=CC[C@@H]4[C@@]5(C)CC[C@H](O[C@@H]6O[C@H](C(=O)O)[C@@H](O)[C@H](O[C@@H]7O[C@H](CO)[C@H](O)[C@H](O)[C@H]7O)[C@H]6O[C@@H]6O[C@H](CO)[C@@H](O)[C@H](O)[C@H]6O)C(C)(C)[C@@H]5CC[C@]43C)[C@@H]2C1 [CALENDULAGYCOSIDE B]	GI50	µM	>	100
COC(=O)[C@H]1O[C@@H](O[C@H]2CC[C@]3(C)[C@H]4CC=C5[C@@H]6CC(C)(C)CC[C@]6(C(=O)O)CC[C@@]5(C)[C@]4(C)CC[C@H]3C2(C)C)[C@H](O)[C@@H](O[C@@H]2O[C@H](CO)[C@H](O)[C@H](O)[C@H]2O)[C@@H]1O	GI50	µM	=	13.3
CCCCOC(=O)[C@H]1O[C@@H](O[C@H]2CC[C@]3(C)[C@H]4CC=C5[C@@H]6CC(C)(C)CC[C@]6(C(=O)O[C@@H]6O[C@H](CO)[C@@H](O)[C@H](O)[C@H]6O)CC[C@@]5(C)[C@]4(C)CC[C@H]3C2(C)C)[C@H](O)[C@@H](O)[C@@H]1O	GI50	µM	=	2.52
CCCCOC(=O)[C@H]1O[C@@H](O[C@H]2CC[C@]3(C)[C@H]4CC=C5[C@@H]6CC(C)(C)CC[C@]6(C(=O)O)CC[C@@]5(C)[C@]4(C)CC[C@H]3C2(C)C)[C@H](O[C@@H]2O[C@H](CO)[C@@H](O)[C@H](O)[C@H]2O)[C@@H](O[C@@H]2O[C@H](CO)[C@H](O)[C@H](O)[C@H]2O)[C@@H]1O	GI50	µM	=	30.6

###

Test system: Raji
assay_method_text: Inhibition of TPA-induced EBV-early antigen activation in human Raji cells at 100 molar ratio relative to TPA
Assay type: cell-based
Design: scale not given: the % may be the effect or the level left
condition_details: human gammaherpesvirus 4

compound	Activity, %
CC1(C)CC[C@]2(C(=O)O[C@@H]3O[C@H](CO)[C@@H](O)[C@H](O)[C@H]3O)CC[C@]3(C)C(=CC[C@@H]4[C@@]5(C)CC[C@H](O[C@@H]6O[C@H](C(=O)O)[C@@H](O)[C@H](O[C@@H]7O[C@H](CO)[C@H](O)[C@H](O)[C@H]7O)[C@H]6O[C@@H]6O[C@H](CO)[C@@H](O)[C@H](O)[C@H]6O)C(C)(C)[C@@H]5CC[C@]43C)[C@@H]2C1 [CALENDULAGYCOSIDE A]	75.3
CC1(C)CC[C@]2(C(=O)O[C@@H]3O[C@H](CO)[C@@H](O)[C@H](O)[C@H]3O)CC[C@]3(C)C(=CC[C@@H]4[C@@]5(C)CC[C@H](O[C@@H]6O[C@H](C(=O)O)[C@@H](O)[C@H](O[C@@H]7O[C@H](CO)[C@H](O)[C@H](O)[C@H]7O)[C@H]6O)C(C)(C)[C@@H]5CC[C@]43C)[C@@H]2C1 [CALENDULAGYCOSIDE C]	73.1
CCCCOC(=O)[C@H]1O[C@@H](O[C@H]2CC[C@]3(C)[C@H]4CC=C5[C@@H]6CC(C)(C)CC[C@]6(C(=O)O[C@@H]6O[C@H](CO)[C@@H](O)[C@H](O)[C@H]6O)CC[C@@]5(C)[C@]4(C)CC[C@H]3C2(C)C)[C@H](O[C@@H]2O[C@H](CO)[C@@H](O)[C@H](O)[C@H]2O)[C@@H](O[C@@H]2O[C@H](CO)[C@H](O)[C@H](O)[C@H]2O)[C@@H]1O	71.6
COC(=O)[C@H]1O[C@@H](O[C@H]2CC[C@]3(C)[C@H]4CC=C5[C@@H]6CC(C)(C)CC[C@]6(C(=O)O[C@@H]6O[C@H](CO)[C@@H](O)[C@H](O)[C@H]6O)CC[C@@]5(C)[C@]4(C)CC[C@H]3C2(C)C)[C@H](O[C@@H]2O[C@H](CO)[C@@H](O)[C@H](O)[C@H]2O)[C@@H](O[C@@H]2O[C@H](CO)[C@H](O)[C@H](O)[C@H]2O)[C@@H]1O	77.8
COc1cc(-c2oc3cc(O)cc(O)c3c(=O)c2O[C@@H]2O[C@H](CO[C@@H]3O[C@@H](C)[C@H](O)[C@@H](O)[C@H]3O)[C@@H](O)[C@H](O)[C@H]2O[C@@H]2O[C@@H](C)[C@H](O)[C@@H](O)[C@H]2O)ccc1O	86
CC1(C)CC[C@]2(C(=O)O)CC[C@]3(C)C(=CC[C@@H]4[C@@]5(C)CC[C@H](O[C@@H]6O[C@H](C(=O)O)[C@@H](O)[C@H](O[C@@H]7O[C@H](CO)[C@H](O)[C@H](O)[C@H]7O)[C@H]6O[C@@H]6O[C@H](CO)[C@@H](O)[C@H](O)[C@H]6O)C(C)(C)[C@@H]5CC[C@]43C)[C@@H]2C1 [CALENDULAGYCOSIDE B]	69.2
COc1cc(-c2oc3cc(O)cc(O)c3c(=O)c2O[C@@H]2O[C@H](CO[C@@H]3O[C@@H](C)[C@H](O)[C@@H](O)[C@H]3O)[C@@H](O)[C@H](O)[C@H]2O)ccc1O [NARCISSIN]	84.3
CCCCOC(=O)[C@H]1O[C@@H](O[C@H]2CC[C@]3(C)[C@H]4CC=C5[C@@H]6CC(C)(C)CC[C@]6(C(=O)O[C@@H]6O[C@H](CO)[C@@H](O)[C@H](O)[C@H]6O)CC[C@@]5(C)[C@]4(C)CC[C@H]3C2(C)C)[C@H](O)[C@@H](O[C@@H]2O[C@H](CO)[C@H](O)[C@H](O)[C@H]2O)[C@@H]1O	70.1
CCCCOC(=O)[C@H]1O[C@@H](O[C@H]2CC[C@]3(C)[C@H]4CC=C5[C@@H]6CC(C)(C)CC[C@]6(C(=O)O[C@@H]6O[C@H](CO)[C@@H](O)[C@H](O)[C@H]6O)CC[C@@]5(C)[C@]4(C)CC[C@H]3C2(C)C)[C@H](O)[C@@H](O)[C@@H]1O	70
COC(=O)[C@H]1O[C@@H](O[C@H]2CC[C@]3(C)[C@H]4CC=C5[C@@H]6CC(C)(C)CC[C@]6(C(=O)O)CC[C@@]5(C)[C@]4(C)CC[C@H]3C2(C)C)[C@H](O)[C@@H](O[C@@H]2O[C@H](CO)[C@H](O)[C@H](O)[C@H]2O)[C@@H]1O	71.2
COC(=O)[C@H]1O[C@@H](O[C@H]2CC[C@]3(C)[C@H]4CC=C5[C@@H]6CC(C)(C)CC[C@]6(C(=O)O[C@@H]6O[C@H](CO)[C@@H](O)[C@H](O)[C@H]6O)CC[C@@]5(C)[C@]4(C)CC[C@H]3C2(C)C)[C@H](O)[C@@H](O[C@@H]2O[C@H](CO)[C@H](O)[C@H](O)[C@H]2O)[C@@H]1O	74.3
CCCCOC(=O)[C@H]1O[C@@H](O[C@H]2CC[C@]3(C)[C@H]4CC=C5[C@@H]6CC(C)(C)CC[C@]6(C(=O)O)CC[C@@]5(C)[C@]4(C)CC[C@H]3C2(C)C)[C@H](O[C@@H]2O[C@H](CO)[C@@H](O)[C@H](O)[C@H]2O)[C@@H](O[C@@H]2O[C@H](CO)[C@H](O)[C@H](O)[C@H]2O)[C@@H]1O	71
COc1cc(-c2oc3cc(O)cc(O)c3c(=O)c2O[C@@H]2O[C@H](CO)[C@@H](O)[C@H](O)[C@H]2O[C@@H]2O[C@@H](C)[C@H](O)[C@@H](O)[C@H]2O)ccc1O	81.1
O=c1c(O[C@@H]2O[C@H](CO)[C@@H](O)[C@H](O)[C@H]2O)c(-c2ccc(O)c(O)c2)oc2cc(O)cc(O)c12 [ISOQUERCETIN]	78.5
